# TARGET_UNDER_TEST: T1, EsCas13d, nuclease-dead (Eubacterium siraeum, UniProt B0MS50, R295A;H300A;R849A;H854A)
# T1 sequence: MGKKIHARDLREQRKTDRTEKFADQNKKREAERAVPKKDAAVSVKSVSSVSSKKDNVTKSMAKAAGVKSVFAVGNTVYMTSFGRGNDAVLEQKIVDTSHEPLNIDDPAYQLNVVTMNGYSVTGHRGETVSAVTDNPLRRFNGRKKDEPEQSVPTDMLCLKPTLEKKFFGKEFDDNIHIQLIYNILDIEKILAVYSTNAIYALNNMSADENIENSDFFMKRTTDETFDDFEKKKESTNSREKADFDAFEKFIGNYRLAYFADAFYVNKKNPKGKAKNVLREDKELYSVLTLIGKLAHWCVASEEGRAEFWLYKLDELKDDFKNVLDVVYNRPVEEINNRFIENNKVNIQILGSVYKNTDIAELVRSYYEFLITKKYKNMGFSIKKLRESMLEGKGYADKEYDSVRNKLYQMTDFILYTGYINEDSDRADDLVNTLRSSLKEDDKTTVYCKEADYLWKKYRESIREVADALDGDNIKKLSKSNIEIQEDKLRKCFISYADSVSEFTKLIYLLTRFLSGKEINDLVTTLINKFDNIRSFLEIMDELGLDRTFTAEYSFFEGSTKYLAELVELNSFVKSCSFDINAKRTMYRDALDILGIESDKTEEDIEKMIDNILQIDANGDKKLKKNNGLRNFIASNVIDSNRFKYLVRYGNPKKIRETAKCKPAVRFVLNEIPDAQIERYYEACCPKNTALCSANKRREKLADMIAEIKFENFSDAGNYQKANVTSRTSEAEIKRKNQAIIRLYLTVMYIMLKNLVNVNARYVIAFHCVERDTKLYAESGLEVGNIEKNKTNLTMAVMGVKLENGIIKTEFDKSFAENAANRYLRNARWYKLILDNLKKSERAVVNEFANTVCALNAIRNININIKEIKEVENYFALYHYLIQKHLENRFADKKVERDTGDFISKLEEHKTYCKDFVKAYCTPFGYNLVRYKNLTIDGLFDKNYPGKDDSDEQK
# RUN_DESCRIPTION: crRNA (strand 1, pre-loaded); Mg2+; 40 mM Tris-HCl pH 7.5, 150 mM NaCl, 6 mM MgCl2, 1 mM DTT, 0.1% Tween-20, 0.2 mg/ml BSA; 25 C; 10 min per concentration, then washed
# TEST_CONDITIONS: tags: His6-TwinStrep-SUMO cleaved; N-terminal SNAP kept (SNAP-Surface 488); label: 3' end held by stalled T7 RNA polymerase
METRIC_NAME: pKd
API: returns pKd as number; meaning -log10 of concentration in mol/L.

Worked examples follow.
target 1 insC 3' of 11,insC 3' of 10 (mixed) RNA 1: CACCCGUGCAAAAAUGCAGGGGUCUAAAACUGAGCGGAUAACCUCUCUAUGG RNA 2: GGGAAUGGAUCCACAUCUACGAAUUCGUACCAUAGAGAGGUCUCAUCCGCUCACCGAGAUCGGAAGAGCACACGU : 7.54
target 2 MT 5'PFS UCU 3'PFS UCC (mixed) RNA 1: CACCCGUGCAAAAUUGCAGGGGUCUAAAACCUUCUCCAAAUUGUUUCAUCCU RNA 2: GGGAAUGGAUCCACAUCUACGAAUUCUCUAGGAUGAAACAAUUUGGAGAAGUCCAGAUCGGAAGAGCACACGU : 8.14
target 1 insA 3' of 19,insG 3' of 6 (mixed) RNA 1: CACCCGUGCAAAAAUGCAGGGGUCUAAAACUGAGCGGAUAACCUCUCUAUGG RNA 2: GGGAAUGGAUCCACAUCUACGAAUUCGUACCAUAAGAGAGGUUAUCCGGCUCACCGAGAUCGGAAGAGCACACGU : 7.59
target 1 insU 3' of 21 (mixed) RNA 1: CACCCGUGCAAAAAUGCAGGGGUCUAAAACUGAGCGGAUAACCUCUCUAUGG RNA 2: GGGAAUGGAUCCACAUCUACGAAUUCGUACCUAUAGAGAGGUUAUCCGCUCACCGAGAUCGGAAGAGCACACGU : 7.62
target 1 insU 3' of 12,insA 3' of 2 (mixed) RNA 1: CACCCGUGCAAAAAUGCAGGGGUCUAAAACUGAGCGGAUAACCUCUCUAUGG RNA 2: GGGAAUGGAUCCACAUCUACGAAUUCGUACCAUAGAGAGGUUUAUCCGCUCAACCGAGAUCGGAAGAGCACACGU : 8.15
target 1 insA 3' of 21,insU 3' of 6 (mixed) RNA 1: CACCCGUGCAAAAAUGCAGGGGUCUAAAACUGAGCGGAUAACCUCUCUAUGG RNA 2: GGGAAUGGAUCCACAUCUACGAAUUCGUACCAAUAGAGAGGUUAUCCUGCUCACCGAGAUCGGAAGAGCACACGU : 7.69

Ask: Please look up its pKd: target 3 insA 3' of 3 (mixed) RNA 1: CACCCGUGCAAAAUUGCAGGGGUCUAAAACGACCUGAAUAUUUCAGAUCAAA RNA 2: GGGAAUGGAUCCACAUCUACGAAUUCGUUUUUGAUCUGAAAUAUUCAGGAUCUGCAGAUCGGAAGAGCACACGU
Result: 7.60
